Biological target: BRM (Homo sapiens, UniProt P51531)
Construct: made in house; host or cells: High Five insect cells
Sequence (P51531 whole entry): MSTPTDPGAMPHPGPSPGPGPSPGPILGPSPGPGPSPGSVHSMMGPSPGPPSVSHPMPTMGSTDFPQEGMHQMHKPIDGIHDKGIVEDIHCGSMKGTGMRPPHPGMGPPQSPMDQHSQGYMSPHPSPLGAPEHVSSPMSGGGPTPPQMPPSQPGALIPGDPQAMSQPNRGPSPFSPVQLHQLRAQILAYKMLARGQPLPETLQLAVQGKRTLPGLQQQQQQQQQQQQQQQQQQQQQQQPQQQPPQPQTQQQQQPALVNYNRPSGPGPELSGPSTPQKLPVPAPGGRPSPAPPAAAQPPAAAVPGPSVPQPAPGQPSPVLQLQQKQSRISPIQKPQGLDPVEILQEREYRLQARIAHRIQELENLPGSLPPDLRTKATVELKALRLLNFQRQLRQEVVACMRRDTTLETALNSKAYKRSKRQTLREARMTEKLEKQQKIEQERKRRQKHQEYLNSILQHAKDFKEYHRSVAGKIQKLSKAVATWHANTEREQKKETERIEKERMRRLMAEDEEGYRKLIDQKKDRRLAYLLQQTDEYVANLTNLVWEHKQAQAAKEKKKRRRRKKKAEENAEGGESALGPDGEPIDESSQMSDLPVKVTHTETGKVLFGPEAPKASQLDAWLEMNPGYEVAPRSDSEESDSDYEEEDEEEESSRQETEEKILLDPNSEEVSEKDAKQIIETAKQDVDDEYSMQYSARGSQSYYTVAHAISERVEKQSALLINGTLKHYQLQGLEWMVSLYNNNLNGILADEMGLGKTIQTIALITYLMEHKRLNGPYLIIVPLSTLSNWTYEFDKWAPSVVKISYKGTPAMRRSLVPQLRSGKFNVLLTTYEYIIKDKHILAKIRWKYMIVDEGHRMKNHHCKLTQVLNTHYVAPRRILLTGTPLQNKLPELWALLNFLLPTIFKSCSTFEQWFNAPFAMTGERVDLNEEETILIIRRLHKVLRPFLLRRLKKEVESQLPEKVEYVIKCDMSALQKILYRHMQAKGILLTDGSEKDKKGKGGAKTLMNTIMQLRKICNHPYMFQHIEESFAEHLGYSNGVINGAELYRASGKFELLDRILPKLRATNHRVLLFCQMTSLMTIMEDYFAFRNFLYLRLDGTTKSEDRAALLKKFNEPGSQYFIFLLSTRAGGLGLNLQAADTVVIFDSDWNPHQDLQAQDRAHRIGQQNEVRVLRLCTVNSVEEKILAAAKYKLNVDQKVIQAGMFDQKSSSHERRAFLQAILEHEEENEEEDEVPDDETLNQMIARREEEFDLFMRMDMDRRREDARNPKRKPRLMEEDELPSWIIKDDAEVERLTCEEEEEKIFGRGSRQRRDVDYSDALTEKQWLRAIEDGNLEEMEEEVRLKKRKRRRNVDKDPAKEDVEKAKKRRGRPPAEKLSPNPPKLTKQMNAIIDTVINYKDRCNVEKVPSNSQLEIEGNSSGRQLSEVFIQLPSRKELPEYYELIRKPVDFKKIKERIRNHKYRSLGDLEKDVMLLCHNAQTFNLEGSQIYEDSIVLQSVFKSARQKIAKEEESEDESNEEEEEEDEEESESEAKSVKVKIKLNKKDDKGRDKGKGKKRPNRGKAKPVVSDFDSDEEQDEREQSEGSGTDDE
Experiment: ATPase catalytic activity of BRM, ADP-Glo in vitro biochemical assay
Conditions: ADP-Glo ATPase assay, 30 nM BRM, 400 μM ATP
readout-type: pIC50
// field semantics: pIC50 = negative decimal log of concentration (mol/L)

Enquiry: Name the recorded pIC50 for COCCN(C)c1cccc(-c2ccc3cnc(CNC(=O)c4ccc(C(F)F)c(S(C)(=O)=O)c4)cc3n2)n1 [Compound 110] .
Return: 7.68

Enquiry: Fill in: pIC50 of Cn1cc(-c2ccc3cnc(CNC(=O)c4ccc5c(c4)S(=O)(=O)CCOC5)cc3n2)c(OC(F)F)n1 [Compound 812] is ___
Return: 7.34

Enquiry: Give the measured pIC50 of COCCN(C)c1cccc(-c2ccc3cnc(CNC(=O)c4cnc(C(F)F)c(S(C)(=O)=O)c4)cc3n2)n1 [Compound 105] .
Return: 7.16

Enquiry: Can you share its pIC50? I mean this compound: COc1cccc(-c2ccc3cnc(CNC(=O)c4ccc5c(c4)S(=O)(=O)CCOC5)cc3n2)c1 [Compound 265]
Return: 6.78

Enquiry: Reported pIC50 for COc1ncccc1-c1ccc2cnc(CNC(=O)c3ccc4c(c3)S(=O)(=O)CCOC4)cc2n1 [Compound 808] : what is it?
Return: 7.08

Enquiry: What pIC50 value was documented for this compound, CN(C)S(=O)(=O)c1cccc(C(=O)NCc2cc3nc(-c4cncc(C5CC5)n4)ccc3cn2)c1 [Compound 301] ?
Return: 6.07

Enquiry: For the compound Cn1nccc1-c1cccc(-c2ccc3cnc(CNC(=O)c4ccc5c(c4)S(=O)(=O)CCOC5)cc3n2)c1 [Compound 235] , what pIC50 is on record?
Return: 6.81

Enquiry: Looking for the measured pIC50 of O=C(NCc1cc2nc(N3CCCc4ccc(OCC5CCO5)cc43)ccc2cn1)c1ccc2c(c1)S(=O)(=O)CCOC2 (stereo not drawn) [Compound 735] , can you help?
Return: 8.09

Enquiry: Fill in the blank: the reported pIC50 of CN(C)[C@@H]1CCN(c2cccc(-c3ccc4cnc(CNC(=O)c5ccc6c(c5)S(=O)(=O)CCOC6)cc4n3)n2)CC1(F)F [Compound 79] is ____.
Return: 7.84

====

Kindly state pIC50 for each of the entries shown.
Target: BRG-1 (Homo sapiens)
Construct: made in house; host or cells: High Five insect cells
Sequence (P51532 whole entry): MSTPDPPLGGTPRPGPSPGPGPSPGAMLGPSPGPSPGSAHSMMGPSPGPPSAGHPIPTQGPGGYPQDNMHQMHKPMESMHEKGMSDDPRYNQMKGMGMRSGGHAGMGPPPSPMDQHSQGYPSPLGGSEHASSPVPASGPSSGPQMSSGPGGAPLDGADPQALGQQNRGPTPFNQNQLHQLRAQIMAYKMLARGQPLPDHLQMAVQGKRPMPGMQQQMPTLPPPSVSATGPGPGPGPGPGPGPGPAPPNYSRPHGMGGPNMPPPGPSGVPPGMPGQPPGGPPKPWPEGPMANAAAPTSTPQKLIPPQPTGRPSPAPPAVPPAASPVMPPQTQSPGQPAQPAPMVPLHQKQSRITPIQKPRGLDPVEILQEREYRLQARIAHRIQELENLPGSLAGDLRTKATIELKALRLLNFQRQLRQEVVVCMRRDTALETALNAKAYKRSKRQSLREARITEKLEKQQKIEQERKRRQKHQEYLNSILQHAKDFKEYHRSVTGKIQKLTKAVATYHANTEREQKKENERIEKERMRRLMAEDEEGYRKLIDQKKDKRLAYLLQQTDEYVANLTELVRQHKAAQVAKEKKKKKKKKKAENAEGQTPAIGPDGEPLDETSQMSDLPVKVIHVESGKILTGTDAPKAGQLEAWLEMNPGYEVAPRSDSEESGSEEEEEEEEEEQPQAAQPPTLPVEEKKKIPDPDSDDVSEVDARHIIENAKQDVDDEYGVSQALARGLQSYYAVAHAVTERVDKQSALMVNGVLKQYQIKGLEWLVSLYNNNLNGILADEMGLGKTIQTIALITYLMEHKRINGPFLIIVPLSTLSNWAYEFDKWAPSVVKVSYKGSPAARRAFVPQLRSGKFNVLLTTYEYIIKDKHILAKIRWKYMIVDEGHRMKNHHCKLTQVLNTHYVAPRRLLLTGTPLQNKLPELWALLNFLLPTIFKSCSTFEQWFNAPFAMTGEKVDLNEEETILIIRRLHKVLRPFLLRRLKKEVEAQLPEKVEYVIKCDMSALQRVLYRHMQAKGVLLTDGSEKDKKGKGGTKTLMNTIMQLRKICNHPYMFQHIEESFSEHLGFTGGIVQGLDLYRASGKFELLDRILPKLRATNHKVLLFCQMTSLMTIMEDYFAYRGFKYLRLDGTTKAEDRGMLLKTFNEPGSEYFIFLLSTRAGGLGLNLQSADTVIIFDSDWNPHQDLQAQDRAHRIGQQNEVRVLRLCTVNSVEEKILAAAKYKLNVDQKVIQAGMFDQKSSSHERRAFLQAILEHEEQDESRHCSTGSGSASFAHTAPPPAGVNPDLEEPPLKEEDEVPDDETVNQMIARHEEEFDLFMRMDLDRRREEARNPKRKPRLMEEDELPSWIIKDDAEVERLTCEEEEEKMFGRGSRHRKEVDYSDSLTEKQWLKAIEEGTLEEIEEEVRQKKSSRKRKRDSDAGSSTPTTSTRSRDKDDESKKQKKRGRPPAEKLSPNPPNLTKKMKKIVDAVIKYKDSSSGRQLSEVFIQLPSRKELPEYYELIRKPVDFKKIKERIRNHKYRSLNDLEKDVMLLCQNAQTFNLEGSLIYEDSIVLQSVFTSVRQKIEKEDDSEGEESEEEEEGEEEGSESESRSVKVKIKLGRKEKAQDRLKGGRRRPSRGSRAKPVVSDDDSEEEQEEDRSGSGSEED
Assay: ATPase catalytic activity of BRG-1, ADP-Glo in vitro biochemical assay
Conditions: ADP-Glo ATPase assay, 30 nM BRG-1, 400 μM ATP; read-out: BRG1 IC50
Hey, just a heads up that pIC50 is the negative log base 10 of the concentration in molar.

Enquiry: If you can, please state the reported pIC50 value of COCc1cc(C)c2c(n1)N(c1ccc3cnc(CNC(=O)c4ccc5c(c4)S(=O)(=O)CCOC5)cc3n1)CCC2 .
Return: 6.12

Enquiry: Could you tell me which pIC50 is on file for CN(c1cccc(-c2ccc3cnc(CNC(=O)c4ccc5c(c4)S(=O)(=O)CCOC5)cc3n2)n1)[C@@H]1CCOC1 ?
Return: 6.63

Enquiry: Could you tell me which pIC50 is on file for O=C(NCc1cc2nc(-c3cccc(C4CC4)n3)ccc2cn1)c1ccc2c(c1)S(=O)(=O)CCOC2 ?
Return: 6.23

Enquiry: Need pIC50, item Cn1cc(-c2ccc3cnc(CNC(=O)c4ccc5c(c4)S(=O)(=O)CCOC5)cc3n2)c(OC(F)F)n1
Return: 6.18

Enquiry: I would be grateful if you could share the reported pIC50 for C[C@@H]1CN(c2cccc(-c3ccc4cnc(CNC(=O)c5cnc(C(F)F)c(S(C)(=O)=O)c5)cc4n3)n2)C[C@H](C)O1 .
Return: 6.69

Enquiry: Param item = O=C(NCc1cc2nc(-c3cccc4c3OCO4)ccc2cn1)c1ccc2c(c1)S(=O)(=O)CCOC2 ; retrieve measured pIC50.
Return: 5.82

Enquiry: Please report the recorded pIC50 for O=C(NCc1cc2nc(-c3cccc(N4CC5CC(C4)O5)n3)ccc2cn1)c1ccc2c(c1)S(=O)(=O)CCOC2 .
Return: 6.23
